Data credit: ChEMBL document CHEMBL1124798

# MEASUREMENT_TARGET: Mu-type opioid receptor (Cavia porcellus)
# RUN_DESCRIPTION: Opioid receptor mu antagonistic activity was measured by the displacement of morphine in the guinea pig ileum at a concentration of 100 nM
# Assay type: functional, tissue-based
Flag rule - IC50 ratio less than 2 flags condition met; the remaining entries get condition not met.

| COMPOUND | DISCRETE_LABEL |
| --- | --- |
| C=CCN1CC[C@]23c4c5ccc(O)c4O[C@H]2c2[nH]c4ccccc4c2C[C@@]3(O)[C@H]1C5 | condition met |
| COc1ccc2c3c1O[C@H]1c4[nH]c5ccccc5c4C[C@@]4(O)[C@@H](C2)N(CC2CC2)CC[C@]314 | condition met |
| Oc1ccc2c3c1O[C@H]1c4c(c5ccccc5n4-c4ccccc4)C[C@@]4(O)[C@@H](C2)N(CC2CC2)CC[C@]314 | condition met |
| COc1ccc2[nH]c3c(c2c1)C[C@@]1(O)[C@H]2Cc4ccc(O)c5c4[C@@]1(CCN2CC1CC1)[C@H]3O5 | condition not met |
| Oc1ccc2c3c1O[C@H]1c4[nH]c5c(ccc6ccccc65)c4C[C@@]4(O)[C@@H](C2)N(CC2CC2)CC[C@]314 | condition met |
| Cc1ccc2[nH]c3c(c2c1)C[C@@]1(O)[C@H]2Cc4ccc(O)c5c4[C@@]1(CCN2CC1CC1)[C@H]3O5 | condition met |

**Q:** Quick check: IC50 ratio of CN1CC[C@]23c4c5ccc(O)c4O[C@H]2c2c(c4ccccc4n2C)C[C@@]3(O)[C@H]1C5 under 2?
**A:** condition met

**Q:** And then Oc1ccc2c3c1O[C@H]1c4[nH]c5c(F)cccc5c4C[C@@]4(O)[C@@H](C2)N(CC2CC2)CC[C@]314 , what is it?
**A:** condition not met

**Q:** Now the compound CC(=O)O[C@@]12Cc3c([nH]c4ccccc34)[C@@H]3Oc4c(O)ccc5c4[C@@]31CCN(CC1CC1)[C@@H]2C5
**A:** condition met

**Q:** For CN1CC[C@]23c4c5ccc(O)c4O[C@H]2c2[nH]c4ccccc4c2C[C@@]3(O)[C@H]1C5 [OXYMORPHINDOLE] then?
**A:** condition met

**Q:** Same question for CCOc1cccc2c3c([nH]c12)[C@@H]1Oc2c(O)ccc4c2[C@@]12CCN(CC1CC1)[C@H](C4)[C@]2(O)C3 please.
**A:** condition not met

**Q:** Same question for Oc1ccc2c3c1O[C@H]1c4[nH]c5c(Br)cccc5c4C[C@@]4(O)[C@@H](C2)N(CC2CC2)CC[C@]314 please.
**A:** condition not met
